tested on: macrophage cell line J774; test: Alamar Blue macrophage J774 viability assay; type: cell-based; settings: Mus musculus, J774, 72 h, Table 2, J774 cells, 72 hours culture with compound
test-readout: pIC50
Keep in mind that pIC50 stands for -log10 of concentration in molar terms.

Reported pIC50 for O=C(CCCCCO)c1ccc(-c2ccc(Cl)cc2Cl)cc1 [ABD328] was 4.92
